Test: cells
Study conditions: Homo sapiens, Hs-578T, 96 h
Description: Antiproliferative activity against human Hs 578T cells after 4 days by alamar blue assay
Measured endpoint: pIC50
Recall that pIC50 is obtained by taking minus log10 of the concentration measured in molar.

Problem: Suppose we examine the compound O=C(O)c1ccc2c(c1)nc(NCCc1ccccc1)c1ccncc12 ; what pIC50 value has been reported?
Result: 4.78

Problem: Suppose we examine the compound O=C(O)c1ccc2c(c1)nc(Nc1ccc(F)c(Cl)c1)c1ccncc12 ; what pIC50 value has been reported?
Result: 5.48

Problem: Suppose we examine the compound C#Cc1cccc(Nc2nc3cc(C(=O)O)ccc3c3cnccc23)c1 ; what pIC50 value has been reported?
Result: 5.40

Next:
Problem: Suppose we examine the compound O=C(O)c1ccc2c(c1)nc(Nc1cccc(Cl)c1)c1ccncc12 ; what pIC50 value has been reported?
Result: 4.88

Problem: Suppose we examine the compound COc1cccc(Nc2nc3cc(C(=O)O)ccc3c3cnccc23)c1 ; what pIC50 value has been reported?
Result: 4.89

Problem: Suppose we examine the compound N#Cc1cccc(Nc2nc3cc(C(=O)O)ccc3c3cnccc23)c1 ; what pIC50 value has been reported?
Result: 4.45

Problem: Suppose we examine the compound O=C(O)c1ccc2c(c1)nc(Nc1cccc(F)c1)c1ccncc12 ; what pIC50 value has been reported?
Result: 5.23

# credit: ChEMBL document CHEMBL1649412
